Biological target: Cannabinoid receptor 2 (Homo sapiens)
Sequence (P34972 whole entry): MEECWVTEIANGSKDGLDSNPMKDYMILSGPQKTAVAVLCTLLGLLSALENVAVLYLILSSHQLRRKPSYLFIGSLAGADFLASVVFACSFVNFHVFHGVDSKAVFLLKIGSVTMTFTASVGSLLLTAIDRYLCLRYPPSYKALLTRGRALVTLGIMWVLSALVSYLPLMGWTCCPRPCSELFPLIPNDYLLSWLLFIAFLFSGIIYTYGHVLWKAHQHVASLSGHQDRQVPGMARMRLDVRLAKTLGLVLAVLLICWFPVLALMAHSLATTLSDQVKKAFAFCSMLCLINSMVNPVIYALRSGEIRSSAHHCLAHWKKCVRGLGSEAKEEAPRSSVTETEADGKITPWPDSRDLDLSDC
Experiment: Agonist activity at human CB2 receptor expressed in CHO-K1 cells assessed as maximum efficacy incubated for 20 mins measured after 60 mins addition of cAMP detect reagent by HTRF analysis relative to control
Format: functional, cell-based
Settings: filed as agonist, time 80.0 min
MEASURE: Emax (%)
Write down the numeric answer in % and omit the unit.

{"columns": ["COMPOUND", "TEST TARGET", "MEASURE", "RESULT VALUE"],
 "data": [
  ["CC(C)(C)c1nnc(-c2nn(-c3c[n+]([O-])ccn3)c3c2CC2CCC3O2)s1 (stereo not given)", "Cannabinoid receptor 2 (Homo sapiens)", "Emax", 94.9],
  ["CC(C)(C)NC(=O)c1nn(-c2ccc(F)cc2F)c2c1CC1CCC2O1 (stereo not given)", "Cannabinoid receptor 2 (Homo sapiens)", "Emax", 99]
]}

Let us examine a further case.
Q: Look up Emax: O=C(NC12CC3CC(CC1C3)C2)c1nn(-c2ccc(F)cc2F)c2c1CC1CCC2O1 (stereo not given)
Result: 98
